- Test system: UACC-62 melanoma
- protocol.notes: NCI-60 one-dose screen, 48 h (100 = growth as untreated, 0 = no growth, -100 = all killed)
- condition.parameters: 10 µM unless noted
The panel holds about 83,000 compounds, 20% with a hit somewhere; the sample as a whole holds those more often.

compound: COc1ccc(/C=C2\Oc3cc(OCCN4CCCC4)ccc3C2=O)c(OC)c1
units: %
growth: 101
//
compound: Cc1cnc(NC(=O)C(Cc2ccccc2)NC(=O)c2ccccc2)s1 (centres undefined)
units: %
growth: 62.2
//
compound: COc1ccc(/C=C/C(=O)/C=C/c2cc3ccc(Cl)cc3[nH]c2=O)cc1
units: %
growth: 72.1
//
compound: C#CCN1C(=O)/C(=c2\sc3n(c2=O)C2C(NN=3)N(CC)C(=O)N2CC)c2ccccc21 (centres undefined)
units: %
growth: 25.2
//
compound: O=C1NCC(c2cc3ccccc3[nH]c2=O)Nc2ccccc21 (centres undefined)
units: %
growth: 98.3
//
compound: C#CCN1C(=O)/C(=c2\sc3n(c2=O)NC2C(N=3)N(CC)C(=O)N2CC)c2ccccc21 (centres undefined)
units: %
growth: 54.1
//
compound: CC[C@]1(O)C[C@@H]2CN(Cc3c([nH]c4ccccc34)[C@@](C(=O)OC)(c3cc4c(cc3OC)N(C)[C@H]3[C@@](O)(C(=O)OC)[C@H](OC(C)=O)[C@]5(CC)[C@@H]6C[C@@H]6CN6CC[C@]43[C@@H]65)C2)C1
units: %
growth: 34
//
compound: CN(C)c1ccc(C2CC(c3ccccc3)=NN2/C=C2\SC(=O)NC2=O)cc1 (centres undefined)
units: %
growth: 90.7
//
compound: CCn1cc(C2NC(=O)c3cc(F)ccc3N2)c2cccc(Cl)c21 (centres undefined)
units: %
growth: 28.2

---

- Test system: HCC-2998 colon
- protocol.notes: NCI-60 one-dose screen, 48 h
- condition.parameters: 10 µM unless noted
- Procedure: Growth inhibition of the HCC-2998 human tumor cell line is measured as a screen for anti-cancer activity. Cells are grown in 96 well plates and exposed to the test compound for 48 hours. Compounds are tested at a single concentration, which is 10^-5 M for most compounds. The reported endpoint is percent growth (GI% or GIPRCNT), where numbers from 0 - 100% represent growth inhibition, and numbers from -100% - 0 represent cell death. For example, a value of 40 represents 60% growth inhibition. […]
The panel holds about 83,000 compounds, 20% with a hit somewhere; the sample as a whole holds those more often. Activity calls are given as the source filed them. Rule for the calls: active = growth percent below 10; inactive = the rest.
Labels: active, inactive

compound: CC(=O)Nc1nc(C(=O)N2N=C(C)/C(=C/c3ccccc3)C2=O)cs1
assigned.category: inactive
//
compound: O=C(/C=C/CN1CCOCC1)Nc1cc2c(Nc3cccc(Cl)c3F)ncnc2cc1OCCOC(F)F
assigned.category: inactive
//
compound: Cc1ccc(OCCn2c(C)nn(-c3ccc(Cl)cc3)c2=O)cc1
assigned.category: inactive
//
compound: CN1C(=O)[C@H]2c3c1cccc3[C@@]13NC(=O)O[C@H]1[C@H](CCC3(C)C)C2(C)C
assigned.category: inactive
//
compound: CCN(CC)CCC(=O)c1cccc2ccccc12
assigned.category: inactive
//
compound: CCCCCCC[C@@H](O)CC(=O)N[C@H](CCCCN)C(=O)N[C@H](Cc1c[nH]c2ccccc12)C(=O)NC(CCCCN)C(=O)N[C@H](CC(C)C)C(=O)N[C@H](Cc1ccccc1)C(=O)N[C@H](CCCCN)C(=O)N[C@H](CCCCN)C(=O)N[C@H](CC(C)C)C(=O)N1CCCC1C(=O)N[C@H](CCCCN)C(=O)N[C@H](Cc1ccccc1)C(=O)N[C@H](CC(C)C)C(=O)N[C@H](Cc1c[nH]cn1)C(=O)N[C@H](CC(C)C)C(=O)N[C@H](C)C(=O)N[C@H](CCCCN)C(=O)N[C@H](CCCCN)C(=O)N[C@H](Cc1ccccc1)C(=O)O (stereo partly specified)
assigned.category: active
//
compound: Oc1ccc(N=Cc2ccccc2)cc1
assigned.category: inactive
//
compound: C=C1C(=O)O[C@H]2[C@H]1CC/C(Cn1cc(-c3ccc(N)cc3)nn1)=C\CC[C@@]1(C)O[C@@H]21
assigned.category: inactive
//
compound: COc1ccc(NC(=O)CSc2nc3ccccc3c(=O)n2-c2ccccc2C(F)(F)F)c(OC)c1OC
assigned.category: inactive
//
compound: COC(=O)CCCCN=Cc1c(O)c(O)c(C(C)C)c2cc(C)c(-c3c(C)cc4c(C(C)C)c(O)c(O)c(C=NCCCCC(=O)OC)c4c3O)c(O)c12
assigned.category: inactive
//
compound: O=C(NCCCN1CCN(CCCNC(=O)C2CCCCC2)CC1)C1CCCCC1
assigned.category: inactive
//
compound: CNC(=O)Cc1nc(-c2cccc(NS(=O)(=O)c3c(F)cccc3F)c2F)c(-c2ccnc(Nc3ccccc3)n2)s1
assigned.category: inactive
//
compound: COc1cccc(-c2nc3sccn3c2-c2ccnc(NCCCNS(=O)(=O)c3ccccc3)n2)c1
assigned.category: inactive
//
compound: Clc1nc2ccccc2nc1CI
assigned.category: inactive
//
compound: O=S(=O)(NCCCNc1nccc(-c2c(-c3ccccc3)nc3sccn23)n1)c1ccc(F)cc1
assigned.category: inactive
//
compound: N#CC1=C(N)n2nc(-c3ccncc3)nc2NC1c1cccc2ccccc12 (stereo unspecified)
assigned.category: inactive
//
compound: COc1ccc(C(=O)c2cc(OC)c(OC)c(OC)c2)cc1/C=C/C(=O)c1ccc2c(c1)OCO2
assigned.category: inactive
//
compound: Nc1c(C(=O)Nc2ccccc2)sc2nc3c(cc12)CCCCC3
assigned.category: inactive
//
compound: c1ccc(CCn2nnc3c(Nc4ccc(N5CCOCC5)cc4)ncnc32)cc1
assigned.category: inactive
//
compound: O=S(=O)(NCCCNc1cc(-c2cn(-c3ccccc3)nc2-c2cccc(O)c2)ccn1)c1ccc(Br)cc1
assigned.category: active
//
compound: COc1ccc(/C=C/c2nc(N3CCOCC3)c3cc(F)c(F)cc3n2)cc1OC
assigned.category: inactive
//
compound: COc1cc(C2C=C(C)N=C3SC=C(C)N32)cc(OC)c1OC (stereo unspecified)
assigned.category: active
//
compound: Cc1oc2nc[nH]c(=O)c2c1C(=O)/C=C/c1ccc(Cl)cc1Cl
assigned.category: inactive
//
compound: CSc1nc(-c2cc3ccccc3o2)cc(-c2ccc(Cl)cc2)c1C#N
assigned.category: inactive
//
compound: CCN1C(=O)N(CC)C2Nn3c(s/c(=C\c4cccc(F)c4)c3=O)=NC21 (stereo unspecified)
assigned.category: inactive
//
compound: CC(=O)Nc1ccc(S(=O)(=O)N2C(=O)CCC2C(=O)Nc2ccccc2)cc1 (stereo unspecified)
assigned.category: inactive
//
compound: c1ccc([P+](CCC[P+](c2ccccc2)(c2ccccc2)c2ccccc2)(c2ccccc2)c2ccccc2)cc1
assigned.category: inactive
//
compound: CCN(CC)c1cc(/C=C/c2ccc(OC)c(OC)c2)nc2cc(F)c(F)cc12
assigned.category: inactive
//
compound: O=c1c2cccc3c(Nc4ccc(F)cc4)ccc(c32)c2nc3ccccc3n12
assigned.category: inactive
//
compound: COc1cccc(/C=C2\SC(N3CCN(c4ccccn4)CC3)=NC2=O)c1
assigned.category: inactive
//
compound: O=[N+]([O-])c1cccc(-c2cc(-c3cc(Br)ccc3O)[nH]n2)c1
assigned.category: inactive
//
compound: COC12CC(=O)C(C(C)=O)=C(O)C1(C)c1c(O)c(C)c(O)c(C(C)=O)c1O2 (stereo unspecified)
assigned.category: inactive
//
compound: CC1=C(C#N)C(C)(C)C(C#N)=C(C)N1
assigned.category: inactive
//
compound: O=C1Nc2ccc(Br)cc2C1=N/C=c1\[nH]c(=O)/c(=C/c2ccc(Cl)cc2)s1
assigned.category: inactive
//
compound: O=c1[nH]c(-c2cn(-c3ccc(Cl)cc3)nn2)nc2ccccc12
assigned.category: inactive
//
compound: O=C(O)c1cccc([N+](=O)[O-])c1/C=C/c1ccccc1
assigned.category: inactive
